test system: 242566-281-R-J2-PDC complex spheroid viability; test: Anticancer human tumor 242566-281-R-J2-PDC patient-derived pancreatic carcinoma cell line growth inhibition [CLK]; settings: second compound 10 µM; first compound 0.316 µM; hits give low values
Rule for this label: YES means viability, T/C is less than 40%; NO means viability, T/C is at least 40%.

# example entries with known answers
C=C(F)C(=O)N1CCN(c2nc(OCC3CCCN3C)nc3c2CCN(c2cccc4cccc(Cl)c24)C3)CC1CC#N (centres undefined) + CNC(=O)c1ccc(Nc2nc(OC3CCCC3)c3c(-c4ccc5nc(C)oc5c4)c[nH]c3n2)c(OC)c1 | NO
CC(CO)NC(=O)c1cc(-c2ccc(Cl)cc2)nn(-c2cnn(C)c2)c1=O (centres undefined) + CNC(=O)c1ccc(Nc2nc(OC3CCCC3)c3c(-c4ccc5nc(C)oc5c4)c[nH]c3n2)c(OC)c1 | NO
CC1COCCN1c1cc(C2(S(C)(=N)=O)CC2)nc(-c2ccnc3[nH]ccc23)n1 (centres undefined) + CNC(=O)c1ccc(Nc2nc(OC3CCCC3)c3c(-c4ccc5nc(C)oc5c4)c[nH]c3n2)c(OC)c1 | NO
CCc1c2c(nc3ccc(O)cc13)-c1cc3c(c(=O)n1C2)COC(=O)[C@]3(O)CC + CNC(=O)c1ccc(Nc2nc(OC3CCCC3)c3c(-c4ccc5nc(C)oc5c4)c[nH]c3n2)c(OC)c1 | YES
CC(=O)O[C@H]1C(=O)[C@@]2(C)[C@H]([C@H](OC(=O)c3ccccc3)[C@]3(O)C[C@H](OC(=O)[C@H](O)[C@@H](NC(=O)c4ccccc4)c4ccccc4)C(C)=C1C3(C)C)[C@]1(OC(C)=O)CO[C@@H]1C[C@@H]2O + CNC(=O)c1ccc(Nc2nc(OC3CCCC3)c3c(-c4ccc5nc(C)oc5c4)c[nH]c3n2)c(OC)c1 | NO

Query string: Dear colleague, could you confirm whether viability, T/C of CC1(C)CCC(CN2CCN(c3ccc(C(=O)NS(=O)(=O)c4ccc(NCC5CCOCC5)c([N+](=O)[O-])c4)c(Oc4cnc5[nH]ccc5c4)c3)CC2)=C(c2ccc(Cl)cc2)C1 + CNC(=O)c1ccc(Nc2nc(OC3CCCC3)c3c(-c4ccc5nc(C)oc5c4)c[nH]c3n2)c(OC)c1 falls below 40%? Thanks.
Result string: NO

Query string: Does the reported viability, T/C of CC(Nc1ccc2c(c1)OCCn1cc(N3C(=O)OCC3C(F)F)nc1-2)C(N)=O (centres undefined) + CNC(=O)c1ccc(Nc2nc(OC3CCCC3)c3c(-c4ccc5nc(C)oc5c4)c[nH]c3n2)c(OC)c1 stay below 40%?
Result string: YES

Query string: Lab log: compare recorded viability, T/C with 40%; is it strictly lower for CCCS(=O)(=O)Nc1ccc(F)c(C(=O)c2c[nH]c3ncc(-c4ccc(Cl)cc4)cc23)c1F + CN1CCN(c2cc(C(=O)Nc3cc4cc(-c5cnn(C)c5)ccc4cn3)ccn2)CC1 ?
Result string: YES

Query string: Please indicate whether the reported viability, T/C of CC1COCCN1c1cc(C2(S(C)(=N)=O)CC2)nc(-c2ccnc3[nH]ccc23)n1 (centres undefined) + CN1CCN(c2cc(C(=O)Nc3cc4cc(-c5cnn(C)c5)ccc4cn3)ccn2)CC1 is strictly below 40%.
Result string: YES

----------
Tested on: 242566-281-R-J2-PDC complex spheroid viability
Assay: Anticancer human tumor 242566-281-R-J2-PDC cell line growth inhibition [CLK];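 note: spheroids exposed to compounds for 7 days before readout; 100% = DMSO vehicle control wells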
Conditions: second compound 0.316 µM; first compound 1 µM; hits give low values
Excerpt: A high-throughput screen of multi-cell type tumor spheroids was designed to identify active combinations of […] and targeted small molecules. Complex spheroids include a stromal component modeled by human endothelial cells (HUVEC) and fibroblasts modeled by human mesenchymal stem cells (MSCs). […] Compounds. […] If the clinical Cmax for an agent had not been determined, the highest concentration tested was 10 microM. […]
Binary call on viability, T/C with cut-off 60%: strictly below means True, and equality or higher means False.

CCCS(=O)(=O)Nc1ccc(F)c(C(=O)c2c[nH]c3ncc(-c4ccc(Cl)cc4)cc23)c1F + CNC(=O)c1ccc(Nc2nc(OC3CCCC3)c3c(-c4ccc5nc(C)oc5c4)c[nH]c3n2)c(OC)c1 | False
COc1cccc2c1C(=O)c1c(O)c3c(c(O)c1C2=O)CC(O)(C(=O)CO)CC3OC1CC(N)C(O)C(C)O1 (stereo not given) + CN1CCN(c2cc(C(=O)Nc3cc4cc(-c5cnn(C)c5)ccc4cn3)ccn2)CC1 | True
C=CC(=O)N1CCN(c2nc(=O)n(-c3c(C)ccnc3C(C)C)c3nc(-c4c(O)cccc4F)c(F)cc23)C(C)C1 (stereo not given) + CN1CCN(c2cc(C(=O)Nc3cc4cc(-c5cnn(C)c5)ccc4cn3)ccn2)CC1 | True
C#Cc1c(F)ccc2cc(O)cc(-c3ncc4c(N5CC6CCC(C5)N6)nc(OCC56CCCN5CC(F)C6)nc4c3F)c12 (stereo not given) + CN1CCN(c2cc(C(=O)Nc3cc4cc(-c5cnn(C)c5)ccc4cn3)ccn2)CC1 | True

Query string: I'd appreciate it if you could check whether CC(Nc1ccc2c(c1)OCCn1cc(N3C(=O)OCC3C(F)F)nc1-2)C(N)=O (stereo not given) + CNC(=O)c1ccc(Nc2nc(OC3CCCC3)c3c(-c4ccc5nc(C)oc5c4)c[nH]c3n2)c(OC)c1 has viability, T/C smaller than 60%.
Result string: True

Query string: Say whether its viability, T/C is strictly beneath 60%. Entry: COc1ccc([C@@H](O)c2cc(-c3ncnc4cc(N5CCOCC5)ccc34)c(F)cc2Cl)nn1 + CNC(=O)c1ccc(Nc2nc(OC3CCCC3)c3c(-c4ccc5nc(C)oc5c4)c[nH]c3n2)c(OC)c1
Result string: False

Query string: Hi there! Is viability, T/C for CCN1CCN(Cc2ccc(Nc3ncc(F)c(-c4cc(F)c5nc(C)n(C(C)C)c5c4)n3)nc2)CC1 + CNC(=O)c1ccc(Nc2nc(OC3CCCC3)c3c(-c4ccc5nc(C)oc5c4)c[nH]c3n2)c(OC)c1 below 60%, do you know?
Result string: False

----------
test system: 242566-281-R-J2-PDC complex spheroid viability; assay: Anticancer human tumor 242566-281-R-J2-PDC cell line growth inhibition [CLK]; settings: second compound 1 µM; first compound 0.0949 µM; active means viability on the fitted dose curve at most 10% of control; inactive means the rest;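 note: spheroids exposed to compounds for 7 days before readout; 100% = DMSO vehicle control wells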
Respond using exactly one of the listed classes: active, inactive

Query string: Query: recorded result category for CC(C)CC(NC(=O)C(Cc1ccccc1)NC(=O)c1cnccn1)B(O)O (stereo unspecified) + CN1CCN(c2cc(C(=O)Nc3cc4cc(-c5cnn(C)c5)ccc4cn3)ccn2)CC1 in this test
Result string: active

Query string: What was the test verdict on CC(C)CC(NC(=O)C(Cc1ccccc1)NC(=O)c1cnccn1)B(O)O (stereo unspecified) + CNC(=O)c1ccc(Nc2nc(OC3CCCC3)c3c(-c4ccc5nc(C)oc5c4)c[nH]c3n2)c(OC)c1 ?
Result string: active

Query string: Entry NC(=O)C(=Cn1cnc(-c2cc(C(F)(F)F)cc(C(F)(F)F)c2)n1)c1cncnc1 + CN1CCN(c2cc(C(=O)Nc3cc4cc(-c5cnn(C)c5)ccc4cn3)ccn2)CC1 : call = ?
Result string: active

Query string: Fill in: this test's call for C=CC(=O)Nc1cc(Nc2nccc(-c3cn(C)c4ccccc34)n2)c(OC)cc1N(C)CCN(C)C + CN1CCN(c2cc(C(=O)Nc3cc4cc(-c5cnn(C)c5)ccc4cn3)ccn2)CC1 is ___
Result string: active

Query string: Write down the call the test reported for this compound. Item: NC(=O)C(=Cn1cnc(-c2cc(C(F)(F)F)cc(C(F)(F)F)c2)n1)c1cncnc1 + CNC(=O)c1ccc(Nc2nc(OC3CCCC3)c3c(-c4ccc5nc(C)oc5c4)c[nH]c3n2)c(OC)c1
Result string: inactive

Query string: # fetch the recorded call for C=CC(=O)Nc1cc(Nc2nccc(-c3cn(C)c4ccccc34)n2)c(OC)cc1N(C)CCN(C)C + CNC(=O)c1ccc(Nc2nc(OC3CCCC3)c3c(-c4ccc5nc(C)oc5c4)c[nH]c3n2)c(OC)c1 here
Result string: inactive

----------
system: 242566-281-R-J2-PDC complex spheroid viability; test: Anticancer human tumor 242566-281-R-J2-PDC cell line growth inhibition [CLK]; conditions: second compound 0.0316 µM; first compound 0.316 µM; hits give low values;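 note: spheroids exposed to compounds for 7 days before readout; 100% = DMSO vehicle control wells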
For each record, write down the corresponding viability, T/C.

Example entries and their recorded answers appear below.
COC1C=CCC(C)C(C)S(=O)(=O)NC(=O)c2ccc3c(c2)N(CC2CCC21)CC1(CCCc2cc(Cl)ccc21)CO3 (stereo not drawn) + CN1CCN(c2cc(C(=O)Nc3cc4cc(-c5cnn(C)c5)ccc4cn3)ccn2)CC1 | 101%
CCCS(=O)(=O)Nc1ccc(F)c(C(=O)c2c[nH]c3ncc(-c4ccc(Cl)cc4)cc23)c1F + CNC(=O)c1ccc(Nc2nc(OC3CCCC3)c3c(-c4ccc5nc(C)oc5c4)c[nH]c3n2)c(OC)c1 | 86.6%

Now examine the next entry.
Query string: Item COc1c(OCCCN2CCOCC2)ccc2c3n(c(=NC(=O)c4cnc(N)nc4)nc12)CCN3 + CNC(=O)c1ccc(Nc2nc(OC3CCCC3)c3c(-c4ccc5nc(C)oc5c4)c[nH]c3n2)c(OC)c1 has what recorded viability, T/C?
Result string: 19.5%
